The entries below come with measured growth values attached.
tested on: HOP-62 NSCLC; experiment: NCI-60 one-dose screen, 48 h (100 = growth as untreated, 0 = no growth, -100 = all killed); settings: 10 µM
About 83,000 compounds went through this panel and 20% of them were active in at least one assay; those are over-represented in the sample as a whole.
Enter your answer as a number in %; do not include the unit.

O=C(N/N=C/c1ccc(Cl)cc1)c1ccc(Cc2n[nH]c(=O)c3cccnc23)cc1 :: 97.3
COc1ccc(-c2nc(-c3nc4ccc(C)cc4[nH]3)cc3c2[nH]c2ccccc23)cc1 :: 55.3

Input line: Entry `Cc1cc(Cl)ccc1Nc1nc(C(F)(F)F)ccc1C(=O)N/N=C/c1cccc(O)c1` has what growth?
Output line: 44.2

Input line: Please report the recorded growth for `CC(C)(C)OC(=O)CN1CCc2c(sc3ncnc(N/N=C/c4ccccc4Br)c23)C1` .
Output line: 89

Input line: Which growth value is on record for `O=C1c2c(c(=O)[nH]c3ccccc23)CCN1Cc1ccccc1` ?
Output line: 92.7

Input line: What value of growth has been reported for the following compound? `O=C(CCCSc1nc(-c2ccc(Cl)cc2)cc(-c2ccc(Cl)cc2)n1)NO`
Output line: 15.4

Input line: growth for `CCOC(=O)C(C)(c1ccccc1)c1ccccc1` ?
Output line: 95

Input line: Any idea what growth was measured for `O=C(N/N=C/c1ccc([N+](=O)[O-])cc1)c1ccccc1Nc1cccc(C(F)(F)F)c1` ?
Output line: 89.4

Input line: Which growth reading was recorded for the compound `Cc1ccc(NC(=O)N2CCCCC2)cc1[N+](=O)[O-]` ?
Output line: 84.2

Input line: Which growth value belongs to NC1=NC(c2ccc(Cl)cc2)C2=C(N1)/C(=C/c1ccc(Cl)cc1)CCC2 (stereo not given) ?
Output line: 140

###

Listing of recorded growth by entry.
system: SK-OV-3 ovarian; experiment: NCI-60 one-dose screen, 48 h (100 = growth as untreated, 0 = no growth, -100 = all killed); settings: 10 µM
The panel holds about 83,000 compounds, 20% with a hit somewhere; the sample as a whole holds those more often.
All answers are understood in %, so give the number only.

O=C1C=C(Nc2cccc(Br)c2)c2ccccc2C1=O :: 25.7
CC1C(=NC(=O)c2cnccn2)C(C)C(c2ccc(Cl)cc2)NC1c1ccncc1 (stereo not drawn) :: 94.4
O=S(=O)(O)c1ccc(Cl)cc1 :: 92.6

Input line: Lab note: need growth with SK-OV-3 ovarian for entry `c1ccc(CSc2ncccc2-c2nnc(SCCN3CCOCC3)o2)cc1` , please look it up.
Output line: 109

Input line: Test system SK-OV-3 ovarian; read-out growth; what value for `O=C(CCCCC(=O)Oc1c(Cl)cc(Cl)cc1[N+](=O)[O-])Oc1c(Cl)cc(Cl)cc1[N+](=O)[O-]` ?
Output line: 103

Input line: Item: `CCn1cc(CNc2ccc(C(=O)Nc3ccc4ccccc4c3)cc2)c(C)n1` Test system: SK-OV-3 ovarian Read-out: growth Value: ?
Output line: 11.8

Input line: Given the entry OC[C@H]1OC([S-])[C@H](O)[C@@H](O)[C@@H]1O.[Au+] (stereo partly drawn) , what growth was observed with SK-OV-3 ovarian?
Output line: 120

Input line: Form field - read-out: growth; system: SK-OV-3 ovarian; submitted item: `CC(C)(O)CCl`
Output line: 119

Input line: # get_value(readout= growth, system= SK-OV-3 ovarian) for `CCCc1nc(C(C)(C)O)c(C(=O)O)n1Cc1ccc(-c2ccccc2-c2nn[nH]n2)cc1`
Output line: 106
